Test system: crabgrass, large (large crabgrass, Digitaria sanguinalis)
PROCEDURE_TEXT: Test E greenhouse herbicide test, pre- and postemergence
Format: in vivo
TEST_CONDITIONS: Preemergence, 250 g ai/ha; visual, scale 0 no effect to 100 complete control
PARAMETER: Plant response rating, Crabgrass, Large
Would you mind answering with just the numeric figure?

Examples from the recorded data:
[[record]]
molecule = "Cc1cc(C)c2sc(C)c(-c3c(OC(=O)OCCCl)c(C)nn(C)c3=O)c2c1 [Compound 85]"
tested_system = "crabgrass, large (large crabgrass, Digitaria sanguinalis)"
reading = 25

[[record]]
molecule = "COC(=O)Oc1c(C)nn(C)c(=O)c1-c1c(C)sc2c(C)cc(C)cc12 [Compound 81]"
tested_system = "crabgrass, large (large crabgrass, Digitaria sanguinalis)"
reading = 98

[[record]]
molecule = "CCOC(=O)Oc1c(C)nn(C)c(=O)c1-c1c(C)sc2ccc(C)cc12 [Compound 82]"
tested_system = "crabgrass, large (large crabgrass, Digitaria sanguinalis)"
reading = 90

[[record]]
molecule = "Cc1ccc2sc(C)c(-c3c(O)c(C)nn(C)c3=O)c2c1 [Compound 1]"
tested_system = "crabgrass, large (large crabgrass, Digitaria sanguinalis)"
reading = 65


Incoming: Which Plant response rating, Crabgrass, Large is reported for this molecule? CC(=O)Oc1c(C)nn(C)c(=O)c1-c1c(C)cc(C)c2ccccc12 [Compound 153]
Outgoing: 80
